Kindly state normalized growth for each of the entries shown.
TEST_METHOD_NOTES: chemical genetic growth profiling, strain panel (AID 1159580);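 further: tested at 20 µM; growth read once vehicle control cultures reached saturation at 30 °C; 1 = growth at the plate median or of vehicle wells; lower values mean less growth of the strain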
RUN_PARAMETERS: S. cerevisiae deletion strains, growth OD, locus YBR009C, strain hhf1, active compounds read low
Out of some 5,500 compounds screened, about 2,000 (36%) were called active. Another 18% or so got no clear call; they are omitted. Some of the results follow.
Give bare numbers.

CC1(C)C(O)CC(O)C2(C)C1CC(O)C1(C)C2CCC2(C)C(c3ccoc3)OC(=O)C3OC321 (centres undefined): 0.999

Quick one: give me normalized growth for each item below, same order please.
1. COc1ccc(C(=O)CC(=O)c2ccc(C(C)(C)C)cc2)cc1
2. C[C@]12C=CC(=O)C=C1CCC1C3C[C@@H](O)[C@](O)(C(=O)CO)[C@@]3(C)C[C@H](O)[C@@]12F (some centres undefined)
3. COc1ccc(C(=O)N2CCCC2=O)cc1
4. Cc1cc(O)c(C=O)c2c1C(=O)Oc1c(COC(=O)/C=C/C(=O)O)c(O)c(C(=O)O)c(C)c1O2

Reply:
[0.976, 0.999, 0.969, 0.937]
